We begin with log10 IC50 values for 3',5'-cyclic-AMP phosphodiesterase 4D (Homo sapiens), as collected from the published literature.
Lab note - IC50 converted to log10 from values in nM.

Examples with their reported log10 IC50 follow.
INPUT SMILES	log10 IC50
CC(C)NC(=O)N(Cc1cc(-c2cc(C(C)(C)S(C)(=O)=O)cc3cccnc23)ccc1F)c1ccc(S(C)(=O)=O)cc1	-0.10
COc1cc2nc(C)nc(-c3cc(OC(C)C)cc(OC(C)C)c3)c2cc1OC	3.08
Cc1ccc2nc(CCc3nc(-c4ccccc4)cn3C)n3nc(C)cc3c2c1	4.00
COc1ccc(C(=O)Nc2c(Cl)cccc2Cl)cc1OC1CCCC1	1.45

# input for lookup
Observed log10 IC50, 3',5'-cyclic-AMP phosphodiesterase 4D (Homo sapiens), O=C(c1ccc(-c2ccc(Cl)cc2)o1)N1CCCc2ccccc21 : 4.33
